# Method: Single dose PK in healthy subjects (Cohorts 1, 2, S1 and S2), plasma
# Type: in vivo, human
# Run Parameters: human, plasma, intravenous, 14 mg; 6 hr; read-out: Plasma concentration, Mean
Observed Property: concentration at 6 h (µg/mL)
Hi! Could you send only the number? It should be in µg/mL, unit omitted.

For this compound ( COC(=O)N1CCC[C@H](NS(C)(=O)=O)[C@@H]1CO[C@H]1CC[C@@H](c2ccccc2)CC1 [Compound A] ), measured concentration at 6 h is 0.0293

* * *

# Method: Single dose PK in healthy subjects (Cohorts 1, 2, S1 and S2), plasma
# Type: in vivo, human
# Run Parameters: human, plasma, iv, 56 mg, 56 mg single IV infusion, healthy subjects; read-out: Ceoi Median
Observed Property: concentration at 9 h (ng/mL)
Give your result in ng/mL as a bare value.

Input `COC(=O)N1CCC[C@H](NS(C)(=O)=O)[C@@H]1CO[C@H]1CC[C@@H](c2ccccc2)CC1` . Output concentration at 9 h: 112

* * *

# Method: Single dose PK in healthy subjects (Cohorts 1, 2, S1 and S2), plasma
# Format: in vivo, human
# Run Parameters: human, plasma, intravenous, 112 mg; 1.5 hr; read-out: Plasma concentration, Minimum
Observed Property: concentration at 1.5 h
Answer as a quantity: numeral, then unit.

Consider `COC(=O)N1CCC[C@H](NS(C)(=O)=O)[C@@H]1CO[C@H]1CC[C@@H](c2ccccc2)CC1` . Its measured concentration at 1.5 h is 141 ng/mL

* * *

# Method: Single dose PK in healthy subjects (Cohorts 1, 2, S1 and S2), plasma
# Format: in vivo, human
# Run Parameters: human, plasma, intravenous, 7 mg; 9 hr; read-out: Plasma concentration, Median
Observed Property: concentration at 9 h (ng/mL)
Quick reminder: number only, in ng/mL, skip the unit.

Notebook: COC(=O)N1CCC[C@H](NS(C)(=O)=O)[C@@H]1CO[C@H]1CC[C@@H](c2ccccc2)CC1 [Compound A] , concentration at 9 h read as 13.9

* * *

# Method: Multiple-dose PK of intravenous Compound A in patients with NT1 (Cohorts B1, B2), plasma
# Format: in vivo, human
# Run Parameters: human, plasma, intravenous; 11 mg; Day 7; read-out: CL, Mean (converted)
Observed Property: clearance (mL/min)
Give the number; mL/min is assumed, so skip it.

Given item COC(=O)N1CCC[C@H](NS(C)(=O)=O)[C@@H]1CO[C@H]1CC[C@@H](c2ccccc2)CC1 [Compound A] , the value recorded as its clearance is 1010

* * *

# Method: Plasma concentrations in healthy subjects (Cohort 4)
# Format: in vivo
# Run Parameters: human, intravenous, 112 mg, 6 hr, Median
Observed Property: concentration at 6 h

The value of concentration at 6 h measured for the compound COC(=O)N1CCC[C@H](NS(C)(=O)=O)[C@@H]1CO[C@H]1CC[C@@H](c2ccccc2)CC1 [Compound A] turned out to be 227 ng/mL

* * *

# Method: Single dose PK in patients with narcolepsy (Cohorts 5, 6 and 7), plasma
# Assay type: in vivo, human
# Run Parameters: human, plasma, iv, 44.8 mg; 1 hr; NT1, single 9 h IV infusion; read-out: Plasma concentration, Mean
Observed Property: concentration at 1 h (ng/mL)
// note: answer is a bare numeric in ng/mL

The reported concentration at 1 h of the molecule COC(=O)N1CCC[C@H](NS(C)(=O)=O)[C@@H]1CO[C@H]1CC[C@@H](c2ccccc2)CC1 [Compound A] was 61.5

* * *

# Method: Single dose PK in patients with narcolepsy (Cohorts 5, 6 and 7), plasma
# Assay type: in vivo, human
# Run Parameters: human, plasma, intravenous, 44.8 mg, Cmpd A 44.8 mg; Mean; Cohort 5, 6, 7
Observed Property: Cmax (ng/mL)
Dear colleague, please return just the value in ng/mL, with no unit written.

The recorded Cmax for `COC(=O)N1CCC[C@H](NS(C)(=O)=O)[C@@H]1CO[C@H]1CC[C@@H](c2ccccc2)CC1` is 98.3

* * *

# Method: Single dose PK in healthy subjects (Cohorts 1, 2, S1 and S2), plasma
# Format: in vivo, human
# Run Parameters: human, plasma, intravenous, 56 mg; 4 hr; read-out: Plasma concentration, Maximum
# Text: […]
Observed Property: concentration at 4 h (ng/mL)
Value expressed in ng/mL; do not type the unit.

According to the records, this compound `COC(=O)N1CCC[C@H](NS(C)(=O)=O)[C@@H]1CO[C@H]1CC[C@@H](c2ccccc2)CC1` displays concentration at 4 h of 144

* * *

# Method: Plasma concentrations in healthy subjects (Cohort 4)
# Type: in vivo
# Run Parameters: human, intravenous, 112 mg, 1.5 hr, Mean
Observed Property: concentration at 1.5 h (ng/mL)
Only the number, expressed in ng/mL, is required.

# compound `COC(=O)N1CCC[C@H](NS(C)(=O)=O)[C@@H]1CO[C@H]1CC[C@@H](c2ccccc2)CC1` ; its concentration at 1.5 h = 193

* * *

# Method: Single dose PK in patients with narcolepsy (Cohorts 5, 6 and 7), plasma
# Format: in vivo, human
# Run Parameters: human, plasma, intravenous, 5 mg, Cmpd A 5 mg; Median; Cohort 5, 6, 7
# Source text: […]
Observed Property: AUC(0-inf)

Looking up COC(=O)N1CCC[C@H](NS(C)(=O)=O)[C@@H]1CO[C@H]1CC[C@@H](c2ccccc2)CC1 [Compound A] , I found its AUC(0-inf) recorded as 91.1 ng·h/mL

* * *

# Method: Single dose PK in healthy subjects (Cohorts 1, 2, S1 and S2), plasma
# Assay type: in vivo, human
# Run Parameters: human, plasma, intravenous, 14 mg; 3 hr; read-out: Plasma concentration, Mean
Observed Property: concentration at 3 h (µg/mL)
State just the number; it will be interpreted in µg/mL.

The recorded concentration at 3 h for `COC(=O)N1CCC[C@H](NS(C)(=O)=O)[C@@H]1CO[C@H]1CC[C@@H](c2ccccc2)CC1` is 0.0358

* * *

# Method: Single dose PK in healthy subjects (Cohorts 1, 2, S1 and S2), plasma
# Assay type: in vivo, human
# Run Parameters: human, plasma, intravenous, 134.4 mg; 4 hr; read-out: Plasma concentration, Maximum
Observed Property: concentration at 4 h (ng/mL)
The reply should contain only the number, in ng/mL.

So for `COC(=O)N1CCC[C@H](NS(C)(=O)=O)[C@@H]1CO[C@H]1CC[C@@H](c2ccccc2)CC1` , the logged concentration at 4 h turned out to be 355

* * *

# Method: Single dose PK in healthy subjects (Cohorts 1, 2, S1 and S2), plasma
# Assay type: in vivo, human
# Run Parameters: human, plasma, iv, 56 mg, 56 mg single IV infusion, healthy subjects; read-out: AUClast Median
Observed Property: AUC(0-t) (µg·h/mL)
Respond numerically; units are µg·h/mL and should not be typed.

Memo: `COC(=O)N1CCC[C@H](NS(C)(=O)=O)[C@@H]1CO[C@H]1CC[C@@H](c2ccccc2)CC1` , reported AUC(0-t): 1.04

* * *

# Method: Single dose PK in healthy subjects (Cohorts 1, 2, S1 and S2), plasma
# Type: in vivo, human
# Run Parameters: human, plasma, intravenous, 7 mg; 0.5 hr; read-out: Plasma concentration, Mean
Observed Property: concentration at 0.5 h (ng/mL)
Unit ng/mL implied. Number only.

# concentration at 0.5 h of COC(=O)N1CCC[C@H](NS(C)(=O)=O)[C@@H]1CO[C@H]1CC[C@@H](c2ccccc2)CC1 [Compound A] = 9.15

* * *

# Method: Single dose PK in healthy subjects (Cohorts 1, 2, S1 and S2), plasma
# Format: in vivo, human
# Run Parameters: human, plasma, intravenous, 180 mg; 4 hr; read-out: Plasma concentration, Minimum
Observed Property: concentration at 4 hr

The molecule listed as `COC(=O)N1CCC[C@H](NS(C)(=O)=O)[C@@H]1CO[C@H]1CC[C@@H](c2ccccc2)CC1` shows concentration at 4 hr equal to 293 ng/mL

* * *

# Method: Single dose PK in healthy subjects (Cohorts 1, 2, S1 and S2), plasma
# Format: in vivo, human
# Run Parameters: human, plasma, iv, 56 mg, 56 mg single IV infusion, healthy subjects; read-out: Ceoi Mean
Observed Property: concentration at 9 h (ng/mL)
Quick note: give the figure in ng/mL, leave out the unit.

The recorded concentration at 9 h for entry `COC(=O)N1CCC[C@H](NS(C)(=O)=O)[C@@H]1CO[C@H]1CC[C@@H](c2ccccc2)CC1` equals 115

* * *

# Method: Single dose PK in healthy subjects (Cohorts 1, 2, S1 and S2), plasma
# Type: in vivo, human
# Run Parameters: human, plasma, intravenous, 7 mg; 8 hr; read-out: Plasma concentration, Median
# From the text: […]
Observed Property: concentration at 8 h (ng/mL)
Give the value, in units of ng/mL, as a plain number.

Reported concentration at 8 h ( `COC(=O)N1CCC[C@H](NS(C)(=O)=O)[C@@H]1CO[C@H]1CC[C@@H](c2ccccc2)CC1` ) = 13.1
